Where a name gives a salt, the structure may show the parent alone.
rat TRPV1 (Rattus norvegicus (Rat)) measurements of pIC50, listed per entry.
Sequence (O35433 whole entry): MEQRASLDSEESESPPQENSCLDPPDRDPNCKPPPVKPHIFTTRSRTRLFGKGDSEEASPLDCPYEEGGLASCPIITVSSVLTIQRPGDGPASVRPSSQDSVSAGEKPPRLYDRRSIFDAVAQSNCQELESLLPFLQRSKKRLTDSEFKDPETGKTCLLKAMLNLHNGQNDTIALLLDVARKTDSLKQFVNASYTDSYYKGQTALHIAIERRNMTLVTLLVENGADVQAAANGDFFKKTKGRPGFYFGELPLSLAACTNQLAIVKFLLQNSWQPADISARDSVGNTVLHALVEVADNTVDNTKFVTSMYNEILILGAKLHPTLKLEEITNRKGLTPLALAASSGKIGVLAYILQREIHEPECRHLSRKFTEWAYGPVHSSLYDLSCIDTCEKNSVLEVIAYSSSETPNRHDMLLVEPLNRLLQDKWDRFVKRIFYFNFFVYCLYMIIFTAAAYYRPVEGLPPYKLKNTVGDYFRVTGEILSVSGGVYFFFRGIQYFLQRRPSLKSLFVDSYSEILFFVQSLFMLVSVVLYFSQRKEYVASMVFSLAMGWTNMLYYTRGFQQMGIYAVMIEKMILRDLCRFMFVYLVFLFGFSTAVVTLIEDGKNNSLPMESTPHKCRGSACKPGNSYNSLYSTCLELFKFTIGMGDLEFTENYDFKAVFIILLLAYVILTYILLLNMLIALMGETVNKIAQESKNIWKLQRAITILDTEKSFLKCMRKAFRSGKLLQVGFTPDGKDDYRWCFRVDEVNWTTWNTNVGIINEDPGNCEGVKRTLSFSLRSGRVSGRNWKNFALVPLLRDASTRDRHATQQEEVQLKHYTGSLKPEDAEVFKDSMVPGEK
Value format note: pIC50 is -log10 of concentration (mol/L); just state the number.

Req: Tell me the measured pIC50 of CN(C)c1nc2c(c(NCc3ccc(Cl)c(Cl)c3)n1)CCN(c1ncccc1C(F)(F)F)CC2 [Example 73B, trifluoroacetic acid salt] , please.
Resp: 5.17

Req: Next entry: FC(F)(F)c1ccc(Nc2nc(NC3CCOCC3)nc3c2CCN(c2ncccc2C(F)(F)F)CC3)cc1 [Example 61B, trifluoroacetic acid salt]
Resp: 6.64

Req: Next entry: CN(C)c1nc2c(c(Nc3ccc(C(F)(F)F)nc3)n1)CCN(c1ncccc1C(F)(F)F)CC2 [Example 43B, trifluoroacetic acid salt]
Resp: 6.41

Req: Next entry: FC(F)(F)c1ccc(Nc2nc(NCCN3CCCCC3)nc3c2CCN(c2ncccc2C(F)(F)F)CC3)cc1 [Example 58B, trifluoroacetic acid salt]
Resp: 5.82

Req: Next entry: O=C(O)C1CCN(c2nc3c(c(Nc4ccc(C(F)(F)F)cc4)n2)CCN(c2ncccc2C(F)(F)F)CC3)CC1 [Example 57B, trifluoroacetic acid salt]
Resp: 5.26

Source: patent US9738649B2
